Measured values drawn from the RNAGym collection of RNA variant scans (doi:10.7554/elife.80360) for this set.

B1: CPEB3 Ribozyme (parent)
chain: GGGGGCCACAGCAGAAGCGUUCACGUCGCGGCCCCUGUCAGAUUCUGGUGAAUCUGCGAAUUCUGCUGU

Variants of: B1
Assay: self-cleavage, relative activity (ratio to wild type); higher = more cleavage; co-transcriptional
Kindly supply the reported self-cleavage values for the records listed here.
// return just the number, without any unit appended

Exercise: Kindly indicate its recorded self-cleavage. Item: A13U G37U
Key: 0.196

Exercise: Item U21C A23C : provide self-cleavage
Key: 0.608

Exercise: Indicate the recorded self-cleavage value for this variant: G25U U46G
Key: 0.205

Exercise: Note self-cleavage for the variant shown: C39G C66G
Key: 0.566

Exercise: Identify measured self-cleavage corresponding to G19U C33G
Key: 0.203

Exercise: Kindly indicate its recorded self-cleavage. Item: A15U A42C
Key: 0.594

Exercise: Read off the recorded self-cleavage for G31U U36A
Key: 0.189

Exercise: Using known records, supply self-cleavage for G14C A60G
Key: 0.265

Exercise: Answer with reported self-cleavage of C33G G68A
Key: 0.922

Exercise: Please supply the value of reported self-cleavage for the item A8C U55A
Key: 0.969

Exercise: // fetch self-cleavage given entry G17U U36G
Key: 0.191

Exercise: Please give measured self-cleavage of the following entry: A15C U36C
Key: 0.487

Exercise: Input G5C U21A , output reported self-cleavage.
Key: 0.134

Exercise: Fill in reported self-cleavage for this entry: G31A U53C
Key: 0.58

Exercise: Read off the recorded self-cleavage for G41U C63U
Key: 0.691

Exercise: # return recorded self-cleavage for input G37A G68U
Key: 0.385

Exercise: Give the value of self-cleavage reported for the following: G19A U64C
Key: 0.159

Exercise: Dear colleague, please send me the reported self-cleavage for G3U G41C when you can.
Key: 0.0828

Exercise: Kindly indicate its recorded self-cleavage. Item: G14A A23G
Key: 0.444

Exercise: Give the reported self-cleavage for this variant. G56C U61G
Key: 0.483

Exercise: Note self-cleavage for the variant shown: G1U C7G
Key: 0.127

Exercise: Supply self-cleavage value. Item: G48C G58A
Key: 0.917
